- assay_system: UniProt P9WMC1
- Sequence (P9WMC1 whole entry, looked up): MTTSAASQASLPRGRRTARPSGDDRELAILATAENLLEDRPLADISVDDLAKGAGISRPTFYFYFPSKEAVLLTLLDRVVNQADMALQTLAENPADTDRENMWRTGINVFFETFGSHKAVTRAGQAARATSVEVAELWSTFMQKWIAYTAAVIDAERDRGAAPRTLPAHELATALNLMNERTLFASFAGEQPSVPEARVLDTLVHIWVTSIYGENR
- assay_protocol: Isothermal titration calorimetry (ITC) binding to EthR
- condition_notes: n = 1, one site binding model
pKd: −log10 of the molar value.
measurement_type: pKd

1) O=C(OCC1CCCC1)N1CCCC1 [Compound 2] : 4.82
2) O=C(NCC1CCCC1)C1CCCC1 [Compound 4] : 4.96
3) O=S(=O)(NCC1CCCC1)N1CCCC1 [Compound 6] : 4.70
4) O=C(/C=C/c1ccoc1)N1CCCC1 [Compound 7] : 4.70
5) O=C(NCC1CCCC1)N1CCCC1 [Compound 3] : 5.22
6) O=C(CCc1ccoc1)N1CCCC1 [Compound 8] : 4.66
7) O=S(=O)(CCC1CCCC1)N1CCCC1 [Compound 5] : 4.80

====

- Tested on: M. tuberculosis
- Type: cell-based, Mycobacterium tuberculosis (ATCC 27294)
- condition_notes: in the presence of 1/10 of the MIC of ethionamide; […]; mean ± standard deviation of two independent replicates
We begin with a simple list: items and their reported MEC (minimum effective concentration).
measurement_type: MEC (minimum effective concentration)

1) O=C(NCC1CCOC1)N1CCCC1 (stereo not drawn) : >50 µM
2) O=C(OCCCCC1CCCCC1)N1CCCC1 : 6.3 ± 3.6 µM
3) O=C(CC1CCCC1)N1CCCC1 : 19 ± 7.5 µM
4) O=C(N1CCCC1)C12CC3CC(CC(C3)C1)C2 : > 50 µM
5) CCCCC(=O)N1CCCC1 : > 50 µM
6) O=C(C1CCCC1)N1CCCC1 : > 50 µM

====

MEC (minimum effective concentration): recorded values
- Test system: M. tuberculosis
- Type: cell-based, Mycobacterium tuberculosis (ATCC 27294)
- condition_notes: in the presence of 1/10 of the MIC of ethionamide; […]; mean ± standard deviation of two independent replicates
measurement_type: MEC (minimum effective concentration) (µM)

1) O=C(OCC1CCCC1)N1CCCC1 : 19
2) O=C(CC12CC3CC(CC(C3)C1)C2)N1CCCC1 : 1.6

====

- Tested on: M. tuberculosis
- Type: cell-based, Mycobacterium tuberculosis (ATCC 27294)
- condition_notes: in the presence of 1/10 of the MIC of ethionamide; […]; mean ± standard deviation of two independent replicates
measurement_type: MEC (minimum effective concentration) (µM)

1) O=C(OCC1CC1)N1CCCC1 : 3.1
2) O=C(OCCCC1CCCC1)N1CCCC1 : 0.4
3) O=C(CCCCC1CCCCC1)N1CCCC1 : 1.6

====

- System: M. tuberculosis
- Type: cell-based, Mycobacterium tuberculosis (ATCC 27294)
- condition_notes: in the presence of 1/10 of the MIC of ethionamide; […]; mean ± standard deviation of two independent replicates
measurement_type: MEC (minimum effective concentration)

1. O=C(NCC1CCCC1)C1CCCC1 [Compound 4] : >50 µM
2. CCCC(=O)N1CCCC1 [Compound 19] : > 50 µM
3. CC(C)(C)OC(=O)N1CCCC1 [Compound 30, Boc-pyrrolidine] : > 50 µM

====

- Test system: M. tuberculosis
- Assay type: cell-based, Mycobacterium tuberculosis (ATCC 27294)
- condition_notes: in the presence of 1/10 of the MIC of ethionamide; […]; mean ± standard deviation of two independent replicates
measurement_type: MEC (minimum effective concentration)

1) O=S(=O)(CCC1CCCC1)N1CCCC1 [Compound 5] : >50 µM
2) O=C(CCc1ccoc1)N1CCCC1 [Compound 8] : >50 µM
3) O=C(OCC1CCCC1)N1CCCCC1 [Compound 20] : > 50 µM
